The values you see were collected from PubChem BioAssay AID1259334.

Tested on: B cell line, TNFa signaling counterscreen reporter
Test: TNFa signaling inhibitors in B cell line, dose response, counter-screen (AID 1259334);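 also: cells stimulated with TNFa after compound preincubation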
Activity calls are given as the source filed them. Rule as the data show it: active = AC50 below about 11 µM.
Please go through the items and note down their AC50.

Data point: `CC(C)(C)OC(=O)CC(S(=O)(=O)c1ccccc1)S(=O)(=O)c1ccccc1` ; AC50 = 1.07 µM

According to the records, this compound `C[C@H](CO)N1C[C@H](C)[C@H](CN(C)CC2CCCCC2)OCCCC[C@H](C)Oc2ccc(NC(=O)Nc3ccc(C(F)(F)F)cc3)cc2C1=O` displays AC50 of 7.26 µM

// AC50 lookup, compound = `O=C(Nc1ccc(C(F)(F)F)cc1)Nc1ccc2c(c1)[C@H]1C[C@@H](CC(=O)N3CCc4ccccc4C3)O[C@@H](CO)[C@H]1O2` , result: > 7 µM (inactive)

`C[C@@H]1CN([C@@H](C)CO)C(=O)c2c(c3ccccc3n2C)-c2ccccc2CO[C@H]1CN(C)Cc1cccc(C(F)(F)F)c1` yielded AC50 of 6.02 µM

O=C1NC2c3c(I)sc(I)c3C(=O)C2O1 (stereo not drawn) yielded AC50 of 3.87 µM

Documented AC50 of `Cn1cnc([N+](=O)[O-])c1S(=O)(=O)Oc1cccc2ccccc12` : 0.397 µM

Notebook: `COc1ccc(CN2CC3(CN(C(=O)Cc4ccccc4)C3)c3c([nH]c4cc(OC)ccc34)[C@@H]2CO)cc1` , AC50 read as > 20 µM (inactive)

response.value for `COc1ccc(S(=O)(=O)Nc2ccc3c(c2)C(=O)N([C@@H](C)CO)C[C@@H](C)[C@H](CN(C)Cc2ccc(C(F)(F)F)cc2)OCCCC[C@@H](C)O3)cc1` (field: AC50) = 8.32 µM
